Measured values drawn from patent US8431596B2 for this set.

We begin with a simple list: items and their reported IC50.
Experimental Target: AXL (human catalytic domain) (Homo sapiens, UniProt P30530)
Construct: purchased Upstate Ltd. 14-512
Sequence (P30530 473-894): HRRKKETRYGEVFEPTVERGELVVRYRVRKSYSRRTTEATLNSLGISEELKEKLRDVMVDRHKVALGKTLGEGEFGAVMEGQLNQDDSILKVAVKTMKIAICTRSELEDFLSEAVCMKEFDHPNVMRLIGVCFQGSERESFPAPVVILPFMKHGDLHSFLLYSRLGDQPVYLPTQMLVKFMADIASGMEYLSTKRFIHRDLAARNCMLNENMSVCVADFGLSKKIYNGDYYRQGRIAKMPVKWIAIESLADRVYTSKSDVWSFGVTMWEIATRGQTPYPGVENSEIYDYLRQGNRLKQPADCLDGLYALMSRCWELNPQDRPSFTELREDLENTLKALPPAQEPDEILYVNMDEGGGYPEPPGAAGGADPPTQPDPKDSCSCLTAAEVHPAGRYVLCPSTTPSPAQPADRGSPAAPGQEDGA
Assay Details: AXL (human catalytic domain) Enzyme Activity Assay (IMAP fluorescence polarisation)
Assay type: biochemical
Condition Summary: further data set (WW-001 through WW-169, XX-001 through XX-469, YY-001 through YY-016, ZZ-001 through ZZ-003); 150 μM ATP

{"Compound": "CC(C)(C)CNC(=O)Cn1cc(-c2cccc3nc(Nc4ccc(OCCN5CCCC5)cc4)nn23)cn1 [XX-092]", "Experimental Target": "AXL (human catalytic domain) (Homo sapiens, UniProt P30530)", "Value Type": "IC50", "Assay Value": "1000 to 10000 nM"}
{"Compound": "CC(C(=O)Nc1cccc(-c2cccc3nc(Nc4ccc(OCCN5CCCC5)cc4)nn23)c1)c1cccc(Cl)c1 (stereo not shown) [XX-228]", "Experimental Target": "AXL (human catalytic domain) (Homo sapiens, UniProt P30530)", "Value Type": "IC50", "Assay Value": "1000 to 10000 nM"}
{"Compound": "O=C(Nc1nc2cccc(-c3cncc(F)c3)n2n1)C1CC1 [WW-052]", "Experimental Target": "AXL (human catalytic domain) (Homo sapiens, UniProt P30530)", "Value Type": "IC50", "Assay Value": "1000 to 10000 nM"}

// sample CCN(CC)CCOc1ccc(Nc2nc3cccc(-c4ccc(OC)cc4)n3n2)cc1Cl [XX-417] , its IC50 was 100 to 1000 nM

For record O=C(Nc1nc2cccc(-c3ccc4ncccc4c3)n2n1)C1CC1 [WW-092] the listed IC50 is 100 to 1000 nM
